# System: SR leukemia
# experiment-notes: NCI tumour cell line growth inhibition, 48 h; in the data active means GI50 below about 0.43 µM; inactive means the rest
Valid outcomes are listed here; reply with one: y for active, n for inactive

A selection of reference data follows.
compound	qualitative-label
O=C(Nc1ccc(Nc2ccncc2)cc1)c1ccc(Nc2ccnc3ccc([N+](=O)[O-])cc23)cc1	n
NC(=NC1CCCCCC1)c1ccc(N2CCN(c3ccc(C(N)=NC4CCCCCC4)cc3)CC2)cc1	n
COc1cc(-c2cc(-c3nc4ccccc4[nH]3)[nH]n2)cc(OC)c1OC	n

Problem: Could you kindly confirm the outcome this assay logged for `CC(C)(N=NC(C)(C)C1=NCCN1)C1=NCCN1` ?
Result: n

Problem: Could you kindly confirm the outcome this assay logged for `CC[O-].CC[O-].O=Nc1ccc2cc([O-])ccc2c1.O=Nc1ccc2cc([O-])ccc2c1.[Ti+4]` ?
Result: y

Problem: Could you kindly confirm the outcome this assay logged for `Cc1nn2c(/C=C3/C(=O)Nc4ccc(Cl)cc43)c(-c3ccccc3)nc2s1` ?
Result: n

Problem: Could you kindly confirm the outcome this assay logged for `COc1cc2cnc3c(c2cc1OC)Cc1cc2c(cc1-3)OCO2` ?
Result: y

Problem: Could you kindly confirm the outcome this assay logged for `CC1(C)N=C(N)N=C(N)N1c1cccc(CCCCc2ccc(S(=O)(=O)F)cc2Cl)c1` ?
Result: n

Problem: Could you kindly confirm the outcome this assay logged for N#CSCC1CC(O)(c2ccccc2)C(c2ccccc2)C(c2ccc(F)cc2)O1 (stereo not given) ?
Result: y

Problem: Could you kindly confirm the outcome this assay logged for `CCc1nc2ccc(Cc3ccc(C(=O)NO)cc3)cc2c(=O)n1CCc1ccccc1` ?
Result: n

meta.source: PubChem BioAssay (NCI)
